# reported growth inhibition; entries follow
# Assay Comment: NCI Yeast Anticancer Drug Screen. Data for the wt1 strain (AID 149);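 note: 0% = growth of vehicle-treated wt1 cultures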
# Condition Info: S. cerevisiae wt1 strain (SPY 50644) growth inhibition; at 3.7 µM; hits give high values
The panel holds about 79,000 compounds, 15% with a hit somewhere; the sample as a whole holds those more often.
Your answer is read as %, so omit the unit and give the number.

Study these solved cases before continuing.
CCNc1nnc(CSc2nc(-c3ccccc3)c(-c3ccccc3)[nH]2)s1 :: -9
CC(=O)OC1CCC2(C)C(=CCC3C4CCC5(OC6CC(C)CN(C(C)=O)C6C5C)C(C)=C4C(=O)C32)C1 (configuration not stated) :: 2
CC1=C(C)Cc2c(O)ccc(O)c2C1 :: -3

Input line: For the molecule "c1ccc2c(c1)Oc1cccc3cccc-2c13" , what growth inhibition is on record?
Output line: 1

Input line: For the molecule "CC(=O)Cc1ccc[cH-]1.[Fe+2].c1cc[cH-]c1" , what growth inhibition is on record?
Output line: 2

Input line: For the molecule "O=[N+]([O-])C(=C(Sc1ccccc1)Sc1ccccc1)C(Cl)=C(Cl)Cl" , what growth inhibition is on record?
Output line: 13

Input line: For the molecule CC(CC(C)(C)[N+](C)(C)C)[N+](C)(C)C (configuration not stated) , what growth inhibition is on record?
Output line: -2

Input line: For the molecule "CCOc1ccc2c(c1)c(CC(=O)O)cn2C" , what growth inhibition is on record?
Output line: -3

Input line: For the molecule CCCCCCCCCCC1CCC(=O)O1 (configuration not stated) , what growth inhibition is on record?
Output line: -2

Input line: For the molecule "CCN(CC)C(=S)N/N=C(/C)c1cccc(/C(C)=N\NC(=S)N(CC)CC)n1" , what growth inhibition is on record?
Output line: -12

Input line: For the molecule "O=C(NCCCCCCCN1CCCCCCC1)C(C1CCCCC1)C1CCCCC1" , what growth inhibition is on record?
Output line: 26

Input line: For the molecule "Cc1cc(S(=O)(=O)/N=C(/NN)NNc2cccc(C(F)(F)F)n2)c(S)cc1Cl" , what growth inhibition is on record?
Output line: -2

----------
# reported growth inhibition; entries follow
# Assay Comment: NCI Yeast Anticancer Drug Screen. Data for the sgs1 strain (AID 173);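 note: 0% = growth of vehicle-only control cultures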
# Condition Info: S. cerevisiae sgs1 mutant, at 1.2 µM, hits give high values
Compounds without any hit were thinned out: in the full panel of roughly 79,000, 15% have a hit.
Your answer is read as %, so omit the unit and give the number.

Cc1ccc(Nc2nc3c(=O)n(C)c(=O)n(C)c3nc2Nc2ccc(C)cc2)cc1 :: -3
COc1cc(/C=C2\CCc3ccccc3C2=O)cc(OC)c1OC :: 16
COc1ccccc1C(=O)OCC1CCCN2CCCCC12 (stereo unspecified) :: 10

Input line: For the molecule "CC[C@@]1(O)C(=O)OCc2c1cc1n(c2=O)Cc2cc3c(N)cccc3nc2-1" , what growth inhibition is on record?
Output line: 0

Input line: For the molecule "Cc1c(Cl)ccc2c1S(=O)(=O)c1cccc(Cl)c1-2" , what growth inhibition is on record?
Output line: -10

Input line: For the molecule "Oc1c(Br)cc(Br)cc1C1CCCCC1" , what growth inhibition is on record?
Output line: -25

Input line: For the molecule "CC(=O)Nc1ccc2c(c1)C(=Nc1ccc(C(=O)O)cc1)c1ccccc1-2" , what growth inhibition is on record?
Output line: -1

Input line: For the molecule "COc1ccc(/C=C/C(=O)C(C)(C)Br)cc1" , what growth inhibition is on record?
Output line: 69

Input line: For the molecule OCC1OC(OCC(O)C(O)C(O)C(/C=N/Nc2ccccc2)=N/Nc2ccccc2)C(O)C(O)C1O (stereo unspecified) , what growth inhibition is on record?
Output line: 3

Input line: For the molecule "OC(c1ccc(F)cc1)(c1ccc(F)cc1)C1CC1" , what growth inhibition is on record?
Output line: -62

Input line: For the molecule "Cc1ccc(S(=O)(=O)NC(=O)NC2=NC(C)(C)N(c3ccc(Cl)c(Cl)c3)C(N)=N2)cc1" , what growth inhibition is on record?
Output line: -1

----------
# Assay Comment: NCI Yeast Anticancer Drug Screen. Data for the sgs1 strain (AID 173);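 note: 0% = growth of vehicle-only control cultures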
# Condition Info: S. cerevisiae sgs1 mutant, at 11.0 µM, hits give high values
The panel holds about 79,000 compounds, 15% with a hit somewhere; the sample as a whole holds those more often.
# reported growth inhibition; entries follow
Your answer is read as %, so omit the unit and give the number.

Input line: For the compound O=C1CSC(/C=C/c2ccccc2)N1c1ccc(-c2ccc(-n3c(-c4ccccc4)nc4ccccc4c3=O)cc2)cc1 (configuration not stated) , what growth inhibition is on record?
Output line: 0

Input line: For the compound "O=C1Nc2ccccc2/C1=C/COc1ccccc1" , what growth inhibition is on record?
Output line: 45

Input line: For the compound "CC(=O)Nc1ccc(SC(C)=O)cc1" , what growth inhibition is on record?
Output line: 10

Input line: For the compound CCCCCCCC1(N=[N+]=[N-])C(=O)c2ccccc2N(C)C1=O (configuration not stated) , what growth inhibition is on record?
Output line: 20

Input line: For the compound "CC(=O)Nc1ccc(/C=C(\C#N)c2ccc(C)cc2)cc1" , what growth inhibition is on record?
Output line: -23

----------
# Assay Comment: NCI Yeast Anticancer Drug Screen. Data for the wt2 strain (AID 169);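 note: 0% = growth of vehicle-treated yeast cultures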
# Condition Info: S. cerevisiae wt2 strain growth inhibition; at 3.7 µM; hits give high values
This is part of a sample that, as a whole, favours compounds with a hit. Of some 79,000 tested, about 15% had one in any assay.
Property: growth inhibition (%)
Your answer is read as %, so omit the unit and give the number.

Study these solved cases before continuing.
NC(N)=N/N=C\c1c2ccccc2cc2ccccc12 :: -64
C=CC(C)(O)CCC1C(=C)C(O)CC2C(C)(C)CCCC12C (configuration not stated) :: -12
C/C(=N/NC(=S)N1CCCCCC1)c1cccc(/C(C)=N\NC(=S)N2CCCCCC2)n1 :: -6

Input line: For the molecule "c1ccc2c(c1)C(=NCCCN1CCCCCC1)c1cccn1-2" , what growth inhibition is on record?
Output line: -4

----------
# Assay Comment: NCI Yeast Anticancer Drug Screen. Data for the mlh1 strain (AID 171);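 note: 0% = growth of vehicle-treated control cultures of the same strain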
# Condition Info: S. cerevisiae mlh1 strain growth inhibition; at 11.0 µM
# Description: Growth inhibition of yeast strains with defined genetic alterations is measured as a screen for potential anti-cancer activity. Selected strains with alterations in DNA damage repair or cell cycle control were exposed to compounds and growth inhibition was measured relative to vehicle treated controls. The strain used in this assay is mlh1
About 79,000 compounds went through this panel and 15% of them were active in at least one assay; those are over-represented in the sample as a whole. Calls of active or inactive are those of the source. Rule as the data show it: active = growth inhibition above about 70%; inactive = the rest.
Outcome (select one): yes = active, no = inactive

Worked examples follow.
CC(/C=C/c1ccc(Cl)cc1)=N\NC(=S)NCC(C)C :: no
[O-][n+]1c2ccc(O)cc2nc2ccc(Cl)cc21 :: no
COc1ccccc1/C=C1\Sc2scc(-c3cccc([N+](=O)[O-])c3)[n+]2C1=O :: yes
Cc1cc(CO)c(O)c(CNCc2cc(C)cc(CO)c2O)c1 :: no
CCN(CC)CCC(=O)c1ccc(Oc2ccc(F)cc2)cc1 :: no
CC(=O)OCc1ccc(O)c(C=O)c1 :: no
CC(C)OC(=O)Oc1ccccc1OC(=O)OC(C)C :: no
Cc1ccc(S/N=C\c2ccccc2O)cc1 :: no

Input line: Tell me the assay call for "O=C(Cc1csc2[n+]1C(=O)/C(=C/c1ccc(Cl)cc1)S2)Nc1ccccc1" please.
Output line: no

Input line: Tell me the assay call for "O=C1Nc2ccccc2/C1=C/COc1ccccc1" please.
Output line: no

Input line: Tell me the assay call for "O=Nc1cccnc1N=O" please.
Output line: yes

Input line: Tell me the assay call for "CCCCOC(=O)N[C@H]1CCc2cc(OC)c(OC)c(OC)c2-c2ccc(SC)c(=O)cc21" please.
Output line: no

Input line: Tell me the assay call for "Cn1c(N)nc(-c2ccc(Cl)cc2)c1SSc1c(-c2ccc(Cl)cc2)nc(N)n1C" please.
Output line: no

Input line: Tell me the assay call for "Cc1nc(-[n+]2nc(-c3ccncc3)nn2-c2ccccc2)sc1C" please.
Output line: no

Input line: Tell me the assay call for CCN(CC)CC(O)c1ccc2ccc3ccccc3c2c1 (configuration not stated) please.
Output line: no

Input line: Tell me the assay call for "O=C(CCCN1CCC(O)(c2ccc(Cl)cc2)CC1)c1ccc(F)cc1" please.
Output line: no

Input line: Tell me the assay call for "CO[C@H]1C[C@](C)(O)Cc2cc3c(c(O)c21)C(=O)c1c(O)cc2c(c1C3=O)O[C@@H]1O[C@@]2(C)[C@H](O)[C@@H](N(C)C)[C@@H]1O" please.
Output line: no

Input line: Tell me the assay call for "Nc1ncncc1C(C1=C(O)COC1=O)C1=C(O)COC1=O" please.
Output line: no

Input line: Tell me the assay call for "N#CN=Nc1cc(Cl)c(N=NC#N)cc1Cl" please.
Output line: no

Input line: Tell me the assay call for "Cc1ccc(-c2ccc(Nc3c4ccccc4nc4ccccc34)cc2)cn1" please.
Output line: no

Input line: Tell me the assay call for "CCCS(=O)(=O)Nc1ccc(Nc2c3ccccc3nc3ccccc23)c(OC)c1" please.
Output line: no

Input line: Tell me the assay call for "Nc1nc(-c2cccnc2)cc(-c2cc(-c3cccnc3)nc(N)n2)n1" please.
Output line: no

Input line: Tell me the assay call for "O=C(NCCCNCCCNC(=O)c1cc(-c2ccccc2)nc2ccccc12)c1cc(-c2ccccc2)nc2ccccc12" please.
Output line: no

Input line: Tell me the assay call for "CC1CCN(CCC(=O)c2ccc(Cl)cc2)CC1" please.
Output line: no

Input line: Tell me the assay call for "Cn1c(=O)c(-c2ccccc2)c(N=[N+]=[N-])c2ccccc21" please.
Output line: no

Input line: Tell me the assay call for "Cc1[nH]c2ccccc2c1C(c1ccc(N)cc1)c1c(C)[nH]c2ccccc12" please.
Output line: no

Input line: Tell me the assay call for "OC1CSCCCSCCSCCCSC1" please.
Output line: no

Input line: Tell me the assay call for O=C1OC(CCl)CN1/N=C/c1ccc([N+](=O)[O-])o1 (configuration not stated) please.
Output line: no

Input line: Tell me the assay call for "O=[N+]([O-])c1cccc2nc3ccccc3c(NCCCN3CCOCC3)c12" please.
Output line: yes

Input line: Tell me the assay call for "COc1ccccc1N=NC(C(=O)c1ccccc1)C(=O)c1ccccc1" please.
Output line: no

src = PubChem BioAssay (NCI)
